- procedure summary: E. coli acrAB mutant growth effects, primary screen, E. coli filamentation inducers, strain DRC39, OD650, 24 h (AID 1178);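 note: growth measured as culture turbidity by optical density at 650 nm; test concentration not given here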
- condition info: higher = more signal, called active from +8 up or from −8 down
result type: z-score
API doc: respond with a numeric literal and nothing else, no unit.

Determine its reported z-score: "C=CC[C@H](O)c1ccc(O)c2ccccc12"
0.682

Determine its reported z-score: "Cc1ccc(S[C@]2(C(=O)NC3CC3)CC(=O)N(C3Cc4ccccc4C3)[C@@H]2c2ccc(CO)cc2I)cc1"
0.112

Determine its reported z-score: "COC(=O)[C@@]1(Cc2ccc(F)cc2)[C@H]2c3cc(C(=O)N(C)C)n(Cc4cccc5ccccc45)c3C[C@H]2CN1C(=O)c1ccccc1"
-0.609

Determine its reported z-score: "[N-]=[N+]=NCc1ccccc1C[C@]1(C(=O)N2CCCCC2)COC(c2ccc(OCCCO)cc2)=N1"
1.4

Determine its reported z-score: "COC(=O)[C@]1(Cc2ccccc2CN=[N+]=[N-])N=C(c2ccc(OCCCO)cc2)O[C@@H]1c1ccccc1N=[N+]=[N-]"
1.74

Determine its reported z-score: C=CCC(OC(C)=O)[C@@H]1[C@@H](N(Cc2ccc(-c3ccccc3)cc2)C(=O)Cc2ccc(OC)cc2)c2cc(OCCCO)ccc2N1C(=O)c1ccc2ccccc2c1 (stereo not given in full)
0.174

Determine its reported z-score: CC[C@H]1C2=C3C(CC[C@H]4C(OCc5ccc(F)cc5C(F)(F)F)OC[C@](C)([C@@H]34)N(C(=O)OC(C)(C)C)C2)C(COC(C)=O)C1COC(C)=O (stereo not given in full)
-1.26

Determine its reported z-score: O=C1NC(=O)C2C1C=CC(C(O)c1ccc(F)cc1)N2Nc1ccc(Cl)cc1Cl (stereo not given)
-0.2

Determine its reported z-score: "C=C(COC)C(=O)CC[C@@H](OC(=O)c1ccccc1-c1ccccc1C(=O)O)c1ccccc1OCCO"
0.0796

Determine its reported z-score: "COC(=O)[C@@]1(Cc2ccc(F)cc2)[C@H]2c3cc(C(=O)N4CCCC4)n(CCc4c[nH]c5cc(F)ccc45)c3C[C@H]2CN1C(=O)c1ccccc1"
-0.426

Determine its reported z-score: "CCCNC(=O)[C@@]1(Sc2ccc(C)cc2)CC(=O)N(Cc2cc(C(F)(F)F)cc(C(F)(F)F)c2)[C@@H]1c1ccc(CO)cc1"
0.484

Determine its reported z-score: "COc1cccc(C)c1NC(=O)O[C@H]1[C@H](OC(=O)Nc2ccc3c(c2)OCO3)[C@H](OC(=O)Nc2ccc3c(c2)OCO3)[C@@H](OC)O[C@@H]1CO"
0.84

Determine its reported z-score: "COCCCNC(=O)[C@@]1(Cc2ccccc2I)c2ccccc2C(=O)N(Cc2ccccc2OC)[C@H]1c1ccc(CO)cc1"
-0.033

Determine its reported z-score: "O=C(N1CCOCC1)[C@]1(CCS(=O)(=O)c2ccccc2)N=C(c2ccc(OCCCO)cc2)O[C@@H]1c1ccccc1"
2.71

Determine its reported z-score: "CCCCC(=C=CC[C@H](O)c1ccccc1OCCO)CCO"
-0.295

====

- procedure summary: mitochondrial membrane potential change in A549 cells, profiling panel, cell-based, JC-1 fluorescence, basal, 24 h, 100 nL (AID 1138);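 note: A549 lung adenocarcinoma cells under basal conditions with no added stimulus; test concentration not given here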
- condition info: higher = more signal
Use 0.9 as the dividing line for z-score, with the line itself on the class 1 side and lower values as class 0.

Could you please find out whether "COc1ccc(CCNC(=O)[C@@]2(C)c3ccccc3C(=O)N(Cc3ccc(OC(F)(F)F)cc3)[C@H]2c2ccc(CO)cc2)cc1" has z-score that meets 0.9 or exceeds it?
class 0

Could you please find out whether "COc1c(C)cc(-c2nc(-c3ccccc3)c3c(c2C)CO[Si]3(C(C)C)C(C)C)cc1C" has z-score that meets 0.9 or exceeds it?
class 0

Could you please find out whether "CO[C@H]1O[C@H](CO)[C@@H](OC(=O)CCc2ccccc2)[C@@H]2OC(=O)[C@@H](Cc3ccc4ccccc4c3)C/C=C/C[C@H](Cc3ccc4ccccc4c3)C(=O)O[C@@H]12" has z-score that meets 0.9 or exceeds it?
class 1

Could you please find out whether "COc1ccc([Si](C)(C)[C@H]2[C@H](CC(=O)N3CCC[C@H]3CO)O[C@@]3(C(=O)N(Cc4cccc(N5CCCCC5=O)c4)c4ccccc43)[C@@H]2C)cc1" has z-score that meets 0.9 or exceeds it?
class 1

Could you please find out whether "C=CCOC(=O)[C@@H]1[C@H]2C(=O)O[C@H](c3ccccc3)[C@H](c3ccccc3)N2[C@H](c2ccc(OCCOC(=O)[C@H]3C[C@H]4C(=O)N[C@@H](CCCCN(C)C)C(=O)N4[C@H]3c3cccc(OCCO)c3)cc2)[C@@]12C(=O)Nc1ccccc12" has z-score that meets 0.9 or exceeds it?
class 0

Could you please find out whether "COc1cc(Cc2cc3c(c(-c4ccccc4)n2)[Si](C(C)C)(C(C)C)OC3)cc(OC)c1OC" has z-score that meets 0.9 or exceeds it?
class 0

====

- procedure summary: small-molecule microarray binders of probe aDKK1, primary screen, biochemical, biotinylated probe, 635/667 nm fluorescence (AID 1099);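 note: score merges 667nm spot fluorescence with signal to noise across triplicate slides; reference of the scale not given here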
- condition info: higher = more signal
result type: composite z-score
API doc: respond with a numeric literal and nothing else, no unit.

Determine its reported composite z-score: "COC(=O)Cn1c(C(=O)N(C)C)cc2c1C[C@H]1CN(C(=O)c3ccccc3)[C@@](Cc3ccccc3)(C(=O)OC)[C@@H]21"
0.605

Determine its reported composite z-score: "CCCN1C(=O)[C@@]2(c3ccc([N+](=O)[O-])cc3)CC(=O)N(C3CCCCC3)[C@@H]2c2ccc(CO)cc21"
0.27

Determine its reported composite z-score: "O=C1O[C@@H](c2ccccc2)[C@@H](c2ccccc2)N2[C@@H](c3ccc(OCCO)cc3)[C@]3(C(=O)Nc4ccc(C#CC5=CCCCC5)cc43)[C@@H](C(=O)Nc3nc4ccccc4s3)[C@H]12"
-0.127

====

- procedure summary: modulators of HCV replicon luciferase signal, primary screen, HCV replication inhibitor project, Huh7 cells, luciferase reporter (AID 1109);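 note: huh7 hepatoma cells harbouring a luciferase neomycin HCV replicon reporter; luciferase luminescence as measure of HCV replicon replication; test concentration not given here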
- condition info: 48 h, higher = more signal
result type: z-score
API doc: respond with a numeric literal and nothing else, no unit.

Determine its reported z-score: "CC[C@@H](O[Si](C#C[Si](C(C)C)(C(C)C)C(C)C)(C(C)C)C(C)C)c1cn([C@H](C)c2ccccc2)nn1"
-0.772

Determine its reported z-score: "COC(=O)[C@@]1(Cc2ccc(OC)cc2)[C@H]2c3cc(C(=O)N(C)C)n(Cc4c(CO)[nH]cc(C)c4=O)c3C[C@H]2CN1C(=O)c1ccccc1"
-1.37

Determine its reported z-score: CC(C)c1ccc(NN2C(C(O)C3=C[C@H]4C[C@@H](C3)C4(C)C)C=CC3C(=O)N(c4ccccc4)C(=O)C32)cc1 (stereo not given in full)
-0.637

Determine its reported z-score: "[N-]=[N+]=Nc1ccccc1C[C@]1(C(N)=O)COC(c2ccc(OCCCO)cc2)=N1"
-1.17

Determine its reported z-score: CCCCCCCCCCC(O)C1C=CC2C(=O)N(C)C(=O)C2N1Nc1ccccc1 (stereo not given)
-0.28

Determine its reported z-score: "O=C1c2ccccc2[C@@]2(Cc3ccccc3N(CC(F)(F)F)C2=O)[C@H](c2ccc(CO)cc2)N1Cc1ccccc1"
-1.22

Determine its reported z-score: "CCOC(=O)C[C@H]1[C@H](OC(=O)Cc2ccc3c(c2)OCO3)[C@@H](NC(=O)CC(C)C)c2cc(OCCCO)ccc2N1C(=O)c1ccc2ccccc2n1"
-0.699

Determine its reported z-score: "COc1ccc([Si](C)(C)[C@H]2[C@H](CC(=O)N(CCO)Cc3ccccc3)O[C@@]3(C(=O)N(c4ccccc4)c4ccccc43)[C@@H]2C)cc1"
-5.19

Determine its reported z-score: "[N-]=[N+]=NCc1ccccc1[C@H]1OC(c2ccc(OCCCO)cc2)=N[C@@]1(Cc1ccccc1N=[N+]=[N-])C(=O)N1CCOCC1"
-2.2

Determine its reported z-score: CN1C(=O)C2C=CC(C(O)c3cccs3)N(N(c3ccccc3)c3ccccc3)C2C1=O (stereo not given)
0.053

Determine its reported z-score: "COC(=O)C(CC#Cc1ccc2c(c1)[C@]1(C(=O)N2)[C@H](c2ccc(OCCO)cc2)N2[C@H](c3ccccc3)[C@H](c3ccccc3)OC(=O)[C@H]2[C@@H]1C(N)=O)C(=O)OC"
-1.68

Determine its reported z-score: "CC(C)Cc1ccc(CN2CC[C@@H](NC(=O)c3ccccc3)C2)cc1"
-4.02

Determine its reported z-score: "C=C(C(=O)CC[C@@H](OC(=O)c1cccnc1)c1cccc(OCCO)c1)C(C)C"
-2.12

Determine its reported z-score: "[N-]=[N+]=NCc1ccccc1[C@H]1OC(c2ccc(OCCCO)cc2)=N[C@@]1(CCS(=O)(=O)c1ccccc1)C(=O)NCCN1CCOCC1"
-0.233

Determine its reported z-score: "CC(C)C[C@@H]1NC(=O)[C@@H]2C[C@H](C(=O)NCCCCCNC(=O)CS)[C@H](c3ccc(O)cc3)N2C1=O"
2.04

Reference source for all entries: PubChem BioAssay
